Every entry's value here was drawn from ChEMBL document CHEMBL1208778.

Listed here are molecules together with their documented Activity.
- System: MCF7
- Experiment: Cell cycle arrest in human MCF7 cells assessed as accumulation at G0 phase at 10 uM after 24 hrs by FACS analysis
- Assay type: functional
Measured Attribute: Activity (%)

smiles_notation=COc1cc(/C=C/C(=O)c2cccc(-n3cc(-c4ccc(Cl)cc4)[nH]c3=O)c2)cc(OC)c1OC data_value=4.49
smiles_notation=COc1cc(/C=C/C(=O)c2cccc(-n3cc(-c4ccccc4)[nH]c3=O)c2)cc(OC)c1OC data_value=8.19
smiles_notation=O=C(/C=C/c1cccc(O)c1)c1cccc(-n2cc(-c3ccc(Cl)cc3)[nH]c2=O)c1 data_value=3.1
smiles_notation=COc1cc(/C=C/C(=O)c2cccc(-n3cc(-c4cc(OC)c(OC)c(OC)c4)[nH]c3=O)c2)cc(OC)c1OC data_value=3.63
smiles_notation=COc1cc(/C=C/C(=O)c2cccc(-n3cc(-c4ccccc4)[nH]c3=O)c2)ccc1O data_value=11.17
smiles_notation=COc1cc(/C=C/C(=O)c2cccc(-n3cc(-c4ccc(Cl)cc4)[nH]c3=O)c2)ccc1O data_value=3.56
